- Test system: Nrf2 / ARE-dependent luciferase in AREc32 reporter cell line
- experiment.description: AREc32 luciferase reporter activation (Nrf2 induction)
- Format: cell-based, human
- conditions: Table 2; ratio to RTA402
- Method: Effect on Ludferase Reporter Activation. Nrf2 is a transcription factor that binds to the antioxidant response element (ARE) sequence in the promoter regions of its target genes. […] Measurement of ARE-dependent luciferase activity allows quantitative assessment of Nrf2 induction. […] The effect of several compounds disclosed herein on luciferase reporter activation was assessed in the AREc32 reporter cell line (see Table 10 and Table 11). […]
measured.metric: Relative Avg AREc32 EC2X Relative to RTA402 (fold)

INSERT INTO assay_data (smiles_str, value_units, recorded_result) VALUES
  ('C[C@@H]1[C@H]2[C@H]3C(=O)C=C4[C@@]5(C)C=C(C#N)C(=O)C(C)(C)[C@@H]5CC[C@@]4(C)[C@]3(C)CC[C@@]2(CCC(=O)N2CCC2)CC[C@H]1C', 'fold', 0.311),
  ('C[C@@H]1[C@H]2[C@H]3C(=O)C=C4[C@@]5(C)C=C(C#N)C(=O)C(C)(C)[C@@H]5CC[C@@]4(C)[C@]3(C)CC[C@@]2(Cn2cncn2)CC[C@H]1C', 'fold', 0.573),
  ('C[C@@H]1[C@H]2[C@H]3C(=O)C=C4[C@@]5(C)C=C(C#N)C(=O)C(C)(C)[C@@H]5CC[C@@]4(C)[C@]3(C)CC[C@@]2(CN2CCN(C)C2=O)CC[C@H]1C', 'fold', 0.53),
  ('CNC(=O)C[C@]12CC[C@@H](C)[C@H](C)[C@H]1[C@H]1C(=O)C=C3[C@@]4(C)C=C(C#N)C(=O)C(C)(C)[C@@H]4CC[C@@]3(C)[C@]1(C)CC2', 'fold', 0.359),
  ('C[C@@H]1[C@H]2[C@H]3C(=O)C=C4[C@@]5(C)C=C(C#N)C(=O)C(C)(C)[C@@H]5CC[C@@]4(C)[C@]3(C)CC[C@@]2(CN2CCOC2=O)CC[C@H]1C', 'fold', 0.354),
  ('C[C@@H]1[C@H]2[C@H]3C(=O)C=C4[C@@]5(C)C=C(C#N)C(=O)C(C)(C)[C@@H]5CC[C@@]4(C)[C@]3(C)CC[C@@]2(C(=O)N2CCCC2)CC[C@H]1C', 'fold', 2.95),
  ('C[C@@H]1[C@H]2[C@H]3C(=O)C=C4[C@@]5(C)C=C(C#N)C(=O)C(C)(C)[C@@H]5CC[C@@]4(C)[C@]3(C)CC[C@@]2(N)CC[C@H]1C', 'fold', 1.61),
  ('C[C@@H]1[C@H]2[C@H]3C(=O)C=C4[C@@]5(C)C=C(C#N)C(=O)C(C)(C)[C@@H]5CC[C@@]4(C)[C@]3(C)CC[C@@]2(CC(N)=O)CC[C@H]1C', 'fold', 0.455),
  ('C[C@@H]1[C@H]2[C@H]3C(=O)C=C4[C@@]5(C)C=C(C#N)C(=O)C(C)(C)[C@@H]5CC[C@@]4(C)[C@]3(C)CC[C@@]2(CN2CCC2)CC[C@H]1C', 'fold', 1.12),
  ('C[C@@H]1[C@H]2[C@H]3C(=O)C=C4[C@@]5(C)C=C(C#N)C(=O)C(C)(C)[C@@H]5CC[C@@]4(C)[C@]3(C)CC[C@@]2(N2CCC2=O)CC[C@H]1C', 'fold', 1.67),
  ('C[C@@H]1[C@H]2[C@H]3C(=O)C=C4[C@@]5(C)C=C(C#N)C(=O)C(C)(C)[C@@H]5CC[C@@]4(C)[C@]3(C)CC[C@@]2(C(=O)NO)CC[C@H]1C', 'fold', 1.71),
  ('C[C@@H]1[C@H]2[C@H]3C(=O)C=C4[C@@]5(C)C=C(C#N)C(=O)C(C)(C)[C@@H]5CC[C@@]4(C)[C@]3(C)CC[C@@]2(CNC(=O)C(F)F)CC[C@H]1C', 'fold', 0.331),
  ('Cc1noc([C@]23CC[C@@H](C)[C@H](C)[C@H]2[C@H]2C(=O)C=C4[C@@]5(C)C=C(C#N)C(=O)C(C)(C)[C@@H]5CC[C@@]4(C)[C@]2(C)CC3)n1', 'fold', 0.744),
  ('CC(=O)N[C@]12CC[C@@H](C)[C@H](C)[C@H]1[C@H]1C(=O)C=C3[C@@]4(C)C=C(C#N)C(=O)C(C)(C)[C@@H]4CC[C@@]3(C)[C@]1(C)CC2', 'fold', 1.97),
  ('C[C@@H]1[C@H]2[C@H]3C(=O)C=C4[C@@]5(C)C=C(C#N)C(=O)C(C)(C)[C@@H]5CC[C@@]4(C)[C@]3(C)CC[C@@]2(CN2CCNC2=O)CC[C@H]1C', 'fold', 0.563),
  ('C[C@@H]1[C@H]2[C@H]3C(=O)C=C4[C@@]5(C)C=C(C#N)C(=O)C(C)(C)[C@@H]5CC[C@@]4(C)[C@]3(C)CC[C@@]2(CN)CC[C@H]1C', 'fold', 1.27),
  ('C[C@@H]1[C@H]2[C@H]3C(=O)C=C4[C@@]5(C)C=C(C#N)C(=O)C(C)(C)[C@@H]5CC[C@@]4(C)[C@]3(C)CC[C@@]2(/C=N/O)CC[C@H]1C', 'fold', 1.14),
  ('CCC(=O)NC[C@]12CC[C@@H](C)[C@H](C)[C@H]1[C@H]1C(=O)C=C3[C@@]4(C)C=C(C#N)C(=O)C(C)(C)[C@@H]4CC[C@@]3(C)[C@]1(C)CC2', 'fold', 0.166),
  ('CO/N=C/[C@]12CC[C@@H](C)[C@H](C)[C@H]1[C@H]1C(=O)C=C3[C@@]4(C)C=C(C#N)C(=O)C(C)(C)[C@@H]4CC[C@@]3(C)[C@]1(C)CC2', 'fold', 2.73);
